tested on: NCI-H322M lung; assay: NCI-60 one-dose screen, 48 h (100 = growth as untreated, 0 = no growth, -100 = all killed); conditions: 10 µM unless noted
Compounds without any hit were thinned out: in the full panel of roughly 83,000, 20% have a hit.
Please go through the items and note down their growth.
Give bare numbers, in %.

INSERT INTO measurements (compound, study_system, measured_property, data_value) VALUES
  ('COc1cc(NC(C)CCCN)c2ncccc2c1Oc1ccc(Cl)cc1 (configuration not stated)', 'NCI-H322M lung', 'growth', 64.5),
  ('NC(=S)N/N=C(/c1cccs1)C1CC1', 'NCI-H322M lung', 'growth', 93),
  ('CCc1ccc2c(c1)N(CCO)C1=C(C(=O)OC1)C2c1cccc(Br)c1 (configuration not stated)', 'NCI-H322M lung', 'growth', 38.9),
  ('CC1=C(C(=O)Nc2ccc(F)cc2)C(c2ccccc2)C2=C(CC(C)(C)CC2=O)N1 (configuration not stated)', 'NCI-H322M lung', 'growth', 95.9),
  ('CCc1ccc(Nc2ncnc3c2cnn3-c2cccc(Br)c2)cc1', 'NCI-H322M lung', 'growth', 105);

Need growth for each of these compounds.
1. COc1ccc(/C=c2\c(=O)n(-c3ccccc3)c3nn4c(=O)c(=O)[nH]nc4n23)cc1
2. O=[N+]([O-])c1cc(F)c2cccnc2c1O
3. COc1ccccc1NC(=O)OCC12COCN1COC2
4. NC(N)=N/N=C\c1cccc(OCc2ccccc2)c1
5. CCOCC(O)(c1ccc(Cl)cc1)c1ccc(Cl)cc1
6. CN1CCN(Cc2ccc(NC(=O)c3cnc(F)c(C#Cc4cnc(N)c5ncccc45)c3)cc2C(F)(F)F)CC1
7. O=C1/C(=C\c2cccn2C(=O)c2ccccc2)c2ccccc2N1c1c(Cl)cccc1Cl
8. Cc1cc(C)c2c(n1)sc1c(Nc3ccc(Cl)cc3Cl)ncnc12

1: 113; 2: 100; 3: 107; 4: 91.7; 5: 93.9; 6: 33.7; 7: 93.7; 8: 43.9

Need growth for each of these compounds.
1. ClCc1cccc(CSc2ncnc3c2ncn3Cc2cccc(CCl)c2)c1
2. O=c1cc(-c2ccc3c(c2)OCCO3)oc2cc(Cl)ccc12

[101, -6.58]

Need growth for each of these compounds.
1. CCCCn1c(C)nc2ccc(Nc3nc(Cl)nc4nc[nH]c34)cc21
2. COc1ccc(Nc2ncccc2C(=O)NCc2cn(Cc3cc(OC)cc(OC)c3)nn2)cc1
3. COc1cccc2nc(Nc3cccc(NC(=O)c4ccc(N5CCN(C)CC5)c(C(F)(F)F)c4)c3)ccc12
4. OC(c1cc2c(Cl)cc(Cl)cc2c2cc(C(F)(F)F)ccc12)C1CCCCN1 (configuration not stated)

1: 82.5; 2: 105; 3: 42.6; 4: -69.7

These measurements were taken from PubChem BioAssay (NCI).
